System: HIV-1 infection of TZM-bl cells
Assay: HIV-1 infectivity enhancement assay, β-galactosidase luminescence
Assay type: cell-based
Conditions: Feb2021; infectivity relative to virus only
Rule for this label: 1.0 means n-fold to virus (Feb2021) is less than 10; 0.0 means n-fold to virus (Feb2021) is at least 10.

Substance: QCKIKQII [CK6]
Target System: HIV-1 infection of TZM-bl cells
Label Value: 1.0

Substance: QCKIKQIINM [CK5]
Target System: HIV-1 infection of TZM-bl cells
Label Value: 0.0

Substance: KVKVQVV [TG2]
Target System: HIV-1 infection of TZM-bl cells
Label Value: 1.0

Substance: CKIKQII [MG4a]
Target System: HIV-1 infection of TZM-bl cells
Label Value: 1.0

Substance: HHHHKIKIKIKIWWWW [TM4]
Target System: HIV-1 infection of TZM-bl cells
Label Value: 0.0

Substance: KIKIQIW [TM69]
Target System: HIV-1 infection of TZM-bl cells
Label Value: 1.0

Substance: CKFKQFF [CK15]
Target System: HIV-1 infection of TZM-bl cells
Label Value: 1.0

Substance: KFKFQFFF [TG12]
Target System: HIV-1 infection of TZM-bl cells
Label Value: 0.0

Substance: RGDCKFKFQF [TM64/ CN15]
Target System: HIV-1 infection of TZM-bl cells
Label Value: 1.0

Substance: QCKFKQFFNM [CK11]
Target System: HIV-1 infection of TZM-bl cells
Label Value: 0.0

Substance: KFKFQFF [TG6]
Target System: HIV-1 infection of TZM-bl cells
Label Value: 1.0

Substance: CKFKQFFNM [CK14]
Target System: HIV-1 infection of TZM-bl cells
Label Value: 0.0

Substance: CKIKQIINMWQ [MG5a / CK17]
Target System: HIV-1 infection of TZM-bl cells
Label Value: 0.0

Substance: KIKIQIII [TG7]
Target System: HIV-1 infection of TZM-bl cells
Label Value: 0.0

Substance: HHHHKIKIQINMYYYY [TM16]
Target System: HIV-1 infection of TZM-bl cells
Label Value: 0.0

Substance: KIKIQIC [TM112 / CN11]
Target System: HIV-1 infection of TZM-bl cells
Label Value: 0.0

----------
Format: physicochemical
Set-up: key: 1 = fibrils present; 0 non-fibrillar structures
Details: TEM; 1 = fibrils present, 0 = non-fibrillar structures
Assay Endpoint: Fibril

Biosequence: CKIKIQINMW
Result Number: 1
--
Biosequence: RGDKIKIQI
Result Number: 1
--
Biosequence: EIEIQINM
Result Number: 1
--
Biosequence: CKIKIQIII
Result Number: 1
--
Biosequence: KIEIQINM
Result Number: 1
--
Biosequence: CKAKAQANMWQ
Result Number: 0
--
Biosequence: HRRHFRHKITKKK
Result Number: 0
--
Biosequence: KIKQIINM
Result Number: 1
--
Biosequence: FDPFDPFDP
Result Number: 0
--
Biosequence: CKFKFQFNM
Result Number: 1
--
Biosequence: NMWQKFKFQF
Result Number: 1

----------
Below is a list of entries, each paired with its recorded Log10 Inf. rel. to EF-C value.
Tested on: HIV-1 infection of TZM-bl cells
Assay: HIV-1 infectivity enhancement assay, β-galactosidase luminescence
Assay type: cell-based
Conditions: log10 of HIV-1 infection of TZM-bl cells relative to EF-C (EF-C = 0)

Substance: KIKIQIAMWQ
Log10 Inf. rel. to EF-C: -0.4109
--
Substance: KAKQAANMWQ
Log10 Inf. rel. to EF-C: -1.514
--
Substance: MKFKFQF
Log10 Inf. rel. to EF-C: -1.196
--
Substance: KIKIQINMW
Log10 Inf. rel. to EF-C: 0.3339
--
Substance: QCKIKIQINMWQ
Log10 Inf. rel. to EF-C: 0.01546
--
Substance: KIKIQINMWA
Log10 Inf. rel. to EF-C: -0.1642
--
Substance: CKFKQFF
Log10 Inf. rel. to EF-C: -2.171
--
Substance: QCKIKQII
Log10 Inf. rel. to EF-C: -2.189
--
Substance: HGEHGEHGE
Log10 Inf. rel. to EF-C: -1.72
--
Substance: QCKFKFQFNM
Log10 Inf. rel. to EF-C: -0.2906
--
Substance: QCKFKQFF
Log10 Inf. rel. to EF-C: -1.907
--
Substance: CEIEIQI
Log10 Inf. rel. to EF-C: -1.554
--
Substance: KIKIQINM
Log10 Inf. rel. to EF-C: -0.4404
--
Substance: KIKIQIN
Log10 Inf. rel. to EF-C: -0.5766
--
Substance: CKFKFQFNMWQ
Log10 Inf. rel. to EF-C: 0.06446
--
Substance: KIKIKIKIYYYY
Log10 Inf. rel. to EF-C: 0.1402
--
Substance: KIKIQINMAQ
Log10 Inf. rel. to EF-C: -0.6722
--
Substance: KIRGKFEKED
Log10 Inf. rel. to EF-C: -1.2355
--
Substance: CRFRFQF
Log10 Inf. rel. to EF-C: -0.4635
--
Substance: CHLHLQL
Log10 Inf. rel. to EF-C: -1.008
--
Substance: NMWQKAKAQA
Log10 Inf. rel. to EF-C: -1.376
--
Substance: CKIKQIINM
Log10 Inf. rel. to EF-C: -0.3035
--
Substance: HGEHGE
Log10 Inf. rel. to EF-C: -2.193
--
Substance: KFKFQF
Log10 Inf. rel. to EF-C: -1.213

Hello, the source for this data is paper PMC10447463, in case you need it.
